Tested on: Liver microsome
Test: Drug metabolism in rat liver microsomes assessed as 3-(trifluoromethyl)-benzenesulfonamide level after 1 hr in presence of NADPH
Type: ADME
Label rule met when Drug metabolism < 0.08 µM; otherwise rule not met.

Query: Please state whether Drug metabolism is below 0.08 µM for C[C@H]1[C@H](N(C2CC2)S(=O)(=O)c2cccc(C(F)(F)F)c2)CN1C(=O)c1ccc(S(C)(=O)=O)cc1Cl (racemic)
Response: rule not met

Query: # check: Drug metabolism < 0.08 µM for `CS(=O)(=O)c1ccc(F)cc1C(=O)N1CCC(N(C2CC2)S(=O)(=O)c2cccc(C(F)(F)F)c2)CC1`
Response: rule met

Query: Given `CC1(N(C2CC2)S(=O)(=O)c2cccc(C(F)(F)F)c2)CCN(C(=O)c2cc(F)ccc2S(C)(=O)=O)CC1` , is recorded Drug metabolism strictly lower than 0.08 µM?
Response: rule met

Query: For `CS(=O)(=O)c1ccc(C(=O)N2CCC3(CCN(S(=O)(=O)c4cccc(C(F)(F)F)c4)CC3)C2)c(C(F)(F)F)c1` , is the recorded Drug metabolism below the cut-off of 0.08 µM?
Response: rule not met

Query: Please let me know if `CS(=O)(=O)c1ccc(C(=O)N2CC(N(C3CC3)S(=O)(=O)c3cccc(C(F)(F)F)c3)C2)c(C(F)(F)F)c1` shows Drug metabolism below 0.08 µM.
Response: rule met

====

Kindly state IC50 for each of the entries shown.
Target: Voltage-dependent N-type calcium channel subunit alpha-1B (Homo sapiens, UniProt Q00975)
Sequence (Q00975 whole entry): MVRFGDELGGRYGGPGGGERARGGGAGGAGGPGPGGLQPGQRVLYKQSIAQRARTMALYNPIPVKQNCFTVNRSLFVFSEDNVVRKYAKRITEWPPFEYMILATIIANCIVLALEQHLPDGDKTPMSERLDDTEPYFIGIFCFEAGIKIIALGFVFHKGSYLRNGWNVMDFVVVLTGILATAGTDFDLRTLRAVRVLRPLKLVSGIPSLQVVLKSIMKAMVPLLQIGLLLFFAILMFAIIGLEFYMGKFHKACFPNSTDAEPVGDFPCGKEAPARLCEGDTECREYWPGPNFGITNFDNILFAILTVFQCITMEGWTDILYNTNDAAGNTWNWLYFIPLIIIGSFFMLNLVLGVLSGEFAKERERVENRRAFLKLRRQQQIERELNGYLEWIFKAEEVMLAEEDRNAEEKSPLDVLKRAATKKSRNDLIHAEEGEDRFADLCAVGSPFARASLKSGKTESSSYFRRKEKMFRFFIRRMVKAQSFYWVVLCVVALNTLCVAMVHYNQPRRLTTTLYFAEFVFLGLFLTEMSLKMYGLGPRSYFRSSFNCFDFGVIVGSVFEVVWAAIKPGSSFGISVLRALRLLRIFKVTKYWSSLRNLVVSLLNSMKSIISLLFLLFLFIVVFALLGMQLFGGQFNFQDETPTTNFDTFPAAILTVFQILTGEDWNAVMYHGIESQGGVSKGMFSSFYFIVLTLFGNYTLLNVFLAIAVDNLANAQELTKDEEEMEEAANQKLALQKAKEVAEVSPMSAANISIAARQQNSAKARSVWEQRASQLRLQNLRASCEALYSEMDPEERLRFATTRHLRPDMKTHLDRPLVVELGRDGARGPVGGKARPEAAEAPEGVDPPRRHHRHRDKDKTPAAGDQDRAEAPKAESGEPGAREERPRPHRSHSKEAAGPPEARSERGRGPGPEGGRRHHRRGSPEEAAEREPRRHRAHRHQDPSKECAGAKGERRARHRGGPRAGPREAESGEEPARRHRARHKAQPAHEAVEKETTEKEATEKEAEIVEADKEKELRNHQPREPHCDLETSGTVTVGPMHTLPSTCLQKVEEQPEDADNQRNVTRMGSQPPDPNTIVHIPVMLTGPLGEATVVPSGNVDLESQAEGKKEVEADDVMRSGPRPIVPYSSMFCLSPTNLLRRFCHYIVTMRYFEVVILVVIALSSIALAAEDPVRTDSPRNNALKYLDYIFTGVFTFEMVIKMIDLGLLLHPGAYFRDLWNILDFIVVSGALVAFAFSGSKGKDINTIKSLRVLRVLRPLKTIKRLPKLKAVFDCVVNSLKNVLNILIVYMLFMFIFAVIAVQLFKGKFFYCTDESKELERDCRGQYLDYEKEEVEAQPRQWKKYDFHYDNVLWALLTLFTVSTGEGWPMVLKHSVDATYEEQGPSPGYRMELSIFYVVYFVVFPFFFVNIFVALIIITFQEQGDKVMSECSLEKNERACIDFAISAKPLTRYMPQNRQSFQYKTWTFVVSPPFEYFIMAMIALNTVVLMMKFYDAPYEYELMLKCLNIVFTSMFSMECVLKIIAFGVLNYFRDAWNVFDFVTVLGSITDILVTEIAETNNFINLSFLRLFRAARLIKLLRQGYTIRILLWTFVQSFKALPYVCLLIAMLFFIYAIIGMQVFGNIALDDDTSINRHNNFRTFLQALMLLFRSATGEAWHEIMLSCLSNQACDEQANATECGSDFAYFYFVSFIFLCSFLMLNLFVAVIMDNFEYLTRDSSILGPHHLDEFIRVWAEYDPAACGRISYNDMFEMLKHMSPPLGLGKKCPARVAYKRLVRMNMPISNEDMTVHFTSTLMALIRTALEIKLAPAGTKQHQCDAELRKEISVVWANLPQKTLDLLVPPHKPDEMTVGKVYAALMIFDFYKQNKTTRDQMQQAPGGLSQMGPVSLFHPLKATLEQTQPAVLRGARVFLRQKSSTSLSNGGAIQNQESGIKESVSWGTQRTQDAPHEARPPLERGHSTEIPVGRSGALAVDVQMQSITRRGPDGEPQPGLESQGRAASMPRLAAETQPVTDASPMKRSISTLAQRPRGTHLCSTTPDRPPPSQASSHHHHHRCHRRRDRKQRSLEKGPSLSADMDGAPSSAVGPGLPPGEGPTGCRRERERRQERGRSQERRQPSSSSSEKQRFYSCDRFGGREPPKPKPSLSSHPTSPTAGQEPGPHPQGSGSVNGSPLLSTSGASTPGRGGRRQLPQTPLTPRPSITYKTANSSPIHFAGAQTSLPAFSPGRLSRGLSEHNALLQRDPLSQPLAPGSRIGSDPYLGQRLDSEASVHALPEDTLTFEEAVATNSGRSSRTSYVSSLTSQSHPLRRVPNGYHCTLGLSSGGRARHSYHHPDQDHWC
Assay: Inhibition of Cav2.2-mediated calcium influx in HEK cells by FLIPR assay
Report the value in nM with no unit label.

Query: Look up IC50 for this compound: CC(C1CCN(C(=O)c2ccc(S(C)(=O)=O)cc2OC(F)(F)F)CC1)S(=O)(=O)c1cccc(C(F)(F)F)c1 (stereo in doubt; 30 en-1)
Response: 88

Query: I am curious: what IC50 value has been reported for `CC1(N(C2CC2)S(=O)(=O)c2cccc(C(F)(F)F)c2)CCN(C(=O)c2cc(F)ccc2S(C)(=O)=O)CC1` ?
Response: 710

Query: What IC50 value was documented for this compound, `CS(=O)(=O)c1ccc(C(=O)N2CCC(N(C3CC3)S(=O)(=O)c3cccc(C(F)(F)F)c3)CC2)c(OC(F)(F)F)c1` ?
Response: 48

Query: Looking for the measured IC50 of `CC(C)(C1CCN(C(=O)c2cc(F)ccc2S(C)(=O)=O)CC1)S(=O)(=O)c1cccc(C(F)(F)F)c1` , can you help?
Response: 510

Query: Param item = `CS(=O)(=O)c1cc(C(F)(F)F)ccc1C(=O)N1CCC(N(C2CC2)S(=O)(=O)c2cccc(C(F)(F)F)c2)CC1` ; retrieve measured IC50.
Response: 27
